Target: Transthyretin (Homo sapiens, UniProt P02766, V50M)
Test: Stabilization of TTR V30M mutant (unknown origin) assessed as inhibition of protein-mediated amyloid fibril formation
Please respond with reported pKd for every item in the list.
Numbers only, as −log10 of the molar value.

[
  {
    "entry_smiles": "O=C(CCc1ccc(O)cc1)c1c(O)cc(O)cc1O",
    "tested_on": "Transthyretin (Homo sapiens, UniProt P02766, V50M)",
    "endpoint_label": "pKd",
    "data_value": 5.09
  }
]

// switching to the query compound
Data request: Entry COc1cc(O)c(CC=C(C)C)c(O)c1C(=O)/C=C/c1ccc(O)cc1 : reported pKd = ?
Data returned: 4.92

----------
Biological target: UniProtKB P02766
endpoint_label: Kd (nM)
One number for each entry, in nM.

Data request: Recorded Kd for O=C(O)c1ccccc1Nc1cccc(C(F)(F)F)c1 with UniProtKB P02766, please?
Data returned: 30
